B1: Intersectin-1, residues 1156 to 1213; numbered along this chain, Q15811 (parent)
chain: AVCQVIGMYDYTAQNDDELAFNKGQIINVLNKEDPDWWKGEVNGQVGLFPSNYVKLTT

Variants of: B1
Test: abundance fitness (aPCA) (normalised: wild type 0, dead -1); higher = more abundant; growth selection in yeast, the domain comes from the species named
Details: Homo sapiens
So basically every entry gets a class from its abundance fitness, ranges being low class (below -0.6), middle class (-0.6 to below -0.2), high class (-0.2 or more)

Check out these entries, answers already filled in.
>  <Mutation name>
G40A

>  <Qualitative label>
low class

$$$$
>  <Mutation name>
K32P

>  <Qualitative label>
low class

$$$$
>  <Mutation name>
Y9D

>  <Qualitative label>
high class

$$$$
>  <Mutation name>
T12Y

>  <Qualitative label>
middle class

$$$$
>  <Mutation name>
T57R

>  <Qualitative label>
high class

$$$$
>  <Mutation name>
S51K

>  <Qualitative label>
high class

$$$$

-- ask Into which category would you place "L56Y" ?
-- reply high class

-- ask And what about the variant "F49N" ?
-- reply middle class

-- ask And what about the variant "Q45D" ?
-- reply high class

-- ask And what about the variant "L48W" ?
-- reply high class

-- ask And what about the variant "G47N" ?
-- reply low class

-- ask And what about the variant "G7Y" ?
-- reply low class

-- ask And what about the variant "N52M" ?
-- reply high class

-- ask And what about the variant "V29L" ?
-- reply middle class

-- ask And what about the variant "M8W" ?
-- reply middle class

-- ask And what about the variant "I6G" ?
-- reply low class

Recorded values, source the Human Domainome abundance scans (Beltran et al. 2025).
